This section presents variants with their documented self-cleavage values.
B1: HDV Ribozyme (parent)
chain: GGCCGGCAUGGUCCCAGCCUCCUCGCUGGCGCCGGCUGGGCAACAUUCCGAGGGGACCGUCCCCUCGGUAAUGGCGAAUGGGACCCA

variants of: B1; test: self-cleavage, relative activity (ratio to wild type); higher = more cleavage; co-transcriptional
Parameter measured: self-cleavage

1) C30A A42G :: 0
2) C21U C86A :: 0.505
3) G40U G52A :: 0.513
4) C19A A43U :: 0.0222
5) U12C C44U :: 0.0692
6) C7G G74A :: 0.138
7) C7U U69C :: 0.853
8) C14G C61G :: 0.782
9) C41U A71G :: 1.06
10) G28U G80A :: 0.0681
11) A56G C63G :: 0.59
12) C21U G55A :: 0.231
13) C32U G34U :: 0.215
14) A70G A83C :: 0.344
15) U46A G68C :: 0.633
16) C41A G59U :: 1.11
17) G74A A83U :: 0.272
18) C30U G68U :: 0.594
19) U37A A51G :: 0.302
20) C48U G55A :: 0.75
21) C58U U65A :: 1.17
22) U37A C58G :: 0.369
23) C14A U69A :: 0.997
24) G10U G28U :: 0.109
25) G34U A78U :: 0.121
26) G6A C57A :: 0.966
27) A8U C30G :: 0.0369
28) G53C C86A :: 0.866
29) G52U A71G :: 0.901
30) G73U G76A :: 0.208
31) C21G G55C :: 0.135
32) G40A U65C :: 1.12
33) U23A C62U :: 0.966
34) G2A U46C :: 0.109
35) G53A C66A :: 0.794
36) C30A C36A :: 0.0361
37) G11C A83G :: 0.123
38) C48G U72C :: 0.449
39) G6U A51U :: 0.739
40) A16G C41A :: 0.798
41) G28U A45U :: 0.193
42) G67A A78G :: 0.604
43) C21G G28U :: 0.0287
44) G54A A83U :: 0.509
45) C19U A42G :: 0
46) C66G A77C :: 0.262
47) G17A G53U :: 0.718
48) A42G C75A :: 0.0554
49) U9G G25U :: 0.383
50) U27C G52C :: 0.764
51) G53C C85G :: 1.01
52) U69A G82C :: 0.554
53) G28A A70C :: 0.0554
